Experiment: Cytotoxicity against human RPMI8226 cells assessed as cell growth at 10 uM after 24 hrs by SRB assay
Format: functional
Settings: RPMI-8226, 24 h, read-out: Activity
Please enter Fulfilled where growth at 10 µM is greater than or equal to 90%, and Not fulfilled where it is lower.

1. O=C(Nc1cc(-c2cccnc2)nc(NCCCN2CCOCC2)n1)c1cc(Br)cc(C(F)(F)F)c1 = Not fulfilled
2. COCCCNc1nc(NC(=O)c2cc(Br)cc(C(F)(F)F)c2)cc(-c2cccnc2)n1 = Not fulfilled
3. Cc1cc(Cl)ccc1C(=O)Nc1cc(-c2cccnc2)nc(NCCCN2CCOCC2)n1 = Fulfilled
4. COCCCNc1nc(NC(=O)c2cc(OC)cc(OC)c2)cc(-c2cccnc2)n1 = Not fulfilled
5. COc1cc(OC)cc(C(=O)Nc2cc(-c3cccnc3)nc(NCCCN3CCOCC3)n2)c1 = Not fulfilled

Origin of measurements: ChEMBL document CHEMBL3774345
